# Mean clotting time (s), FVIII-deficient plasma, APC-antibody concentration 5 ug/ml annotations
targetSystem: human activated protein C (human, UniProt P04070 43-197; P04070 212-461)
methodNotes: cell-based or functional assay
Give the value in s but do not write s after it.

Completed entries (count: 2):
HAPC-14-3 (antibody, V domains shown, Whole IgG, backbone hIgG1; also called HPAC 14-3; No. 3) VH: EVQLVESGGGLVQPGGSLRLSCAASGFTFSFYYLNWVRQAPGKGLEWVGDIRLKKNNYEKHYAESVKGRFTISRDDSKSITYLQMNSLRAEDTAVYYCAREGDYFDYWGQGTTVTVSS VL: DIQLTQSPSSLSASVGDRVTITCRASESVDSFGATFMHWYQQKPGKAPKLLIYLASRLGSGVPSRFSGSGSGTDFTLTISSLQPEDFATYYCVQNNEDPYTFGQGTKLEIK : 176
HAPC-14-7 (antibody, V domains shown, Whole IgG, backbone hIgG1; also called HPAC 14-7) VH: EVQLVESGGGLVQPGGSLRLSCAASGFTFSFYYLNWVRQAPGKGLEWVGDIRLKSNNYEKHYAESVKGRFTISRDDSKSITYLQMNSLRAEDTAVYYCAREGDYFDYWGQGTTVTVSS VL: DIQLTQSPSSLSASVGDRVTITCRASESVDSFGATFMHWYQQKPGKAPKLLIYLASRLESGVPSRFSGSGSGTDFTLTISSLQPEDFATYYCQQNNEDPYTFGQGTKLEIK : 176

Moving on to the next binder.
Look up and state reported Mean clotting time (s), FVIII-deficient plasma, APC-antibody concentration 5 ug/ml for HAPC-14-4 (antibody, V domains shown, Whole IgG, backbone hIgG1; also called HPAC 14-4) VH: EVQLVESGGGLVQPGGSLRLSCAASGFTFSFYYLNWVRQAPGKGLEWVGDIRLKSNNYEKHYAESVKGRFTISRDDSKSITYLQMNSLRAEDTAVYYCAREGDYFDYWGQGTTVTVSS VL: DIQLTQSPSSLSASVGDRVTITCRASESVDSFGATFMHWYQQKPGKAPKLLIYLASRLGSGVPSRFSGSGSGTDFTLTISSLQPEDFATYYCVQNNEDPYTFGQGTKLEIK
158
